- Test system: P388 leukemia ip, CD2F1 mice, survival T/C
- Procedure Summary: NCI In Vivo Anticancer Drug Screen. Data for tumor model P388 Leukemia (intraperitoneal) in CD2F1 (CDF1) mice
- Measurement Setup: endpoint: median survival time; dose: 12.5 mg/kg/injection; schedule: Q01DX009 (ip); vehicle: saline with Tween-80; higher = longer survival
Toxic doses and inconclusive results are not listed.
The compounds listed here are annotated with their T/C.

{"columns": ["Compound", "Measured On", "T/C"],
 "data": [
  ["O=C(CO)c1ccc([N+](=O)[O-])cc1", "P388 leukemia ip, CD2F1 mice, survival T/C", "116 % of control"],
  ["COc1ccc(/C=C2/SC(=S)N(Cc3ccco3)C2=O)cc1", "P388 leukemia ip, CD2F1 mice, survival T/C", "91 % of control"],
  ["CC(=O)NC1C(S[As](C)C)OC(COC(C)=O)C(OC(C)=O)C1OC(C)=O (configuration not stated)", "P388 leukemia ip, CD2F1 mice, survival T/C", "102 % of control"],
  ["CC/C(=C\\c1ccccc1)[N+](=O)[O-]", "P388 leukemia ip, CD2F1 mice, survival T/C", "103 % of control"],
  ["O=S1(=O)CCC(c2ccccc2)C1 (configuration not stated)", "P388 leukemia ip, CD2F1 mice, survival T/C", "100 % of control"],
  ["O=S(=O)(O)O.[Fe]", "P388 leukemia ip, CD2F1 mice, survival T/C", "95 % of control"],
  ["O=[N+]([O-])c1ccc(C=C2C(Cl)=C(Cl)C(Cl)=C2Cl)cc1", "P388 leukemia ip, CD2F1 mice, survival T/C", "100 % of control"]
]}
